- target.system: Voltage-gated inwardly rectifying potassium channel KCNH2 (Homo sapiens)
- assay.notes: qHTS Assay for Small Molecule Inhibitors of the Human hERG Channel Activity (AID 588834);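 also: lower thallium flux fluorescence means stronger hERG block; nearly all actives have a fitted effect of over 50% in size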; also: potency is read from the fitted curve at half-maximal effect
- experimental.context: U2OS BacMam hERG, FluxOR thallium flux fluorescence; series mostly up to 46.1 µM
Results filed as inconclusive are left out. Calls of active or inactive are those of the source. Calls follow the shape of the dose curve; as a rule, active = well fitted inhibition curve with a large enough effect; inconclusive = small, poorly fitted or top-dose-only effect; inactive = flat fitted curve, though single readings scatter.
readout: Potency

Take a look at these entries with their results.
CC(C)NC(C)Cc1ccc(I)cc1 (stereo not given)
8.91 µM (active)
CCOCCOC(C)=O
inactive
CCCN(CCC)C1CCc2ccc(O)cc2C1 (stereo not given)
2.24 µM (active)
CN(C)NC(=O)CCC(=O)O
inactive

Let us examine a further case.
May I ask what Potency has been recorded for Cc1nc(-c2ccc(-c3ccc(C(=O)N4CCc5cc6c(cc54)C4(CCN(C)CC4)CO6)cc3)c(C)c2)no1 ?
7.94 µM (active)
